- Tested on: RXF 393 renal
Outcomes: active, inactive

COc1cc(Cl)cc(-c2nn(-c3cccc(NC(=O)Nc4ccc(Cl)c(C(F)(F)F)c4)c3)cc2-c2ccncc2)c1	inactive
COc1cc2c3c(n(CCCN=[N+]=[N-])c(=O)c2cc1OC)-c1ccc(N(C)C)cc1C3=O	inactive
COc1cc(/C=C/C(=O)c2cccnc2Nc2ccc(F)cc2)cc(OC)c1OC	inactive
Cc1ccc(-c2nc(N3CCCNCC3)c3oc(-c4ccc(C)cc4)nc3n2)cc1	inactive
CCCNc1nc2ccccc2c2c1S(=O)(=O)c1ccc(Cl)cc1C2=O	active

----------
- Test system: SK-MEL-2 melanoma
- Procedure Summary: NCI tumour cell line growth inhibition, 48 h
Quantity: TGI

O=C(Nc1ccc(I)cc1F)c1cc(Cl)ccc1O	1.99 µM
C[N+](C)=c1nc(N2CCc3ccccc3C2)ss1	> 100 µM
CC(C)COC(=O)c1ccc2[nH]c(O)c(C=Nc3ccc(S(N)(=O)=O)cc3)c2c1	4.19 µM
Cc1ccc(-c2nc(N3CCCNCC3)c3oc(-c4ccc(C)cc4)nc3n2)cc1	45.4 µM
Cc1cccc2nc3cccc(C(=O)NCCN(C)C)c3nc12	2.96 µM
COC(=O)C1=CC2OC1(C)CCC2=O (stereo unspecified)	> 100 µM

Where do these numbers come from? They come from PubChem BioAssay (NCI).
